test system: P. acnes NCTC 737; experiment: Supplemented disc diffusion assay; format: cell-based, Propionibacterium acnes; settings: Cutibacterium acnes, NCTC737, 72 h; P. acnes NCTC 737; sodium chloride 100 mM; 200 μg per disc (2,6-dimethoxy-p-benzoquinone 100 μg); read-out: DDA + salt
readout: zone of inhibition at 200 µg/disc (mm)
Entry rule: numbers only, all in mm.

Enquiry: Data request, read-out zone of inhibition at 200 µg/disc, for CC(C)(C)C1=CC(=O)C(=O)C(C(C)(C)C)=C1 [3,5-di-t-butyl-o-benzoquinone]
Return: 40.5

Enquiry: Endpoint output: zone of inhibition at 200 µg/disc of Cc1cc(O)c(C(C)C)cc1O [thymohydroquinone] . Value?
Return: 9.61

Enquiry: Consider the compound shown here: COC1=C(OC)C(=O)C(C)=CC1=O [2,3-dimethoxy-5-methyl-p-benzoquinone] What is its recorded zone of inhibition at 200 µg/disc?
Return: 43.4

Enquiry: For the compound CC(C)(C)c1cc(C(C)(C)C)c(O)cc1O [4,6-di-t-butylresorcinol] , what zone of inhibition at 200 µg/disc is on record?
Return: 37.8

Enquiry: What measured zone of inhibition at 200 µg/disc goes with CC(C)(C)c1cc(O)c(O)c(C(C)(C)C)c1 [3,5-di-t-butylcatechol] ?
Return: 37.3

Enquiry: What does the data say about its zone of inhibition at 200 µg/disc? Entry: CC1=CC(=O)C(Cl)=CC1=O [2-chloro-5-methyl-p-benzoquinone]
Return: 37.2

Enquiry: Name the reported zone of inhibition at 200 µg/disc value associated with the compound O=[N+]([O-])c1c(O)cccc1O [2-nitroresorcinol]
Return: 12.7

====

test system: S. aureus ATCC 29213; test: MBC assay; format: cell-based, Staphylococcus aureus
For each entry below, report its MBC value.
Give a bare numeral; the unit µg/mL is implied.

Enquiry: What reported MBC corresponds to Oc1ccc(O)c(Br)c1 [2-bromo-p-hydroquinone] on S. aureus ATCC 29213?
Return: 31.25

Enquiry: Fill in the recorded MBC for this compound, with S. aureus ATCC 29213 as test system: CCCCCCOc1cc(C)c(O)c(C)c1C [1-o-hexyl-2,3,5-trimethyl-p-hydroquinone]
Return: 7.8

Enquiry: Find MBC (S. aureus ATCC 29213) for the entry Cc1cc(O)cc(C)c1O [2,6-dimethyl-p-hydroquinone]
Return: 7.8

Enquiry: MBC of Cc1cc(O)c(C)c(C)c1O [2,5,6-trimethyl-p-hydroquinone] on S. aureus ATCC 29213?
Return: 31.25

Enquiry: // lookup MBC | system=S. aureus ATCC 29213 | key= Oc1ccc(O)c(Cl)c1 [2-chloro-p-hydroquinone]
Return: 7.8

Enquiry: Hello, I am looking for reported MBC with S. aureus ATCC 29213 for Oc1c(F)c(F)c(O)c(F)c1F [tetrafluoro-p-hydroquinone] . Could you help?
Return: 125

Enquiry: Please state recorded MBC (tested on S. aureus ATCC 29213) of Oc1ccc(O)c(F)c1F [2,3-difluoro-p-hydroquinone]
Return: 15.6

Enquiry: Hi! What's the reported MBC for CC(C)(C)c1cc(O)c(C(C)(C)C)cc1O [2,5-di-t-butyl-p-hydroquinone] on S. aureus ATCC 29213?
Return: 15.6

Enquiry: # query: MBC | item Oc1cc(Cl)c(O)cc1Cl [2,5-dichloro-p-hydroquinone] | system: S. aureus ATCC 29213
Return: 15.6

Enquiry: # get_value(readout= MBC, system= S. aureus ATCC 29213) for Cc1c(O)ccc(O)c1C [2,3-dimethyl-p-hydroquinone]
Return: 7.8

Enquiry: Reported MBC for S. aureus ATCC 29213, given Oc1cc(Cl)c(O)c(Cl)c1 [2,6-dichloro-p-hydroquinone] ?
Return: 31.25

Enquiry: # value lookup — system S. aureus ATCC 29213, readout MBC, item Oc1c(Cl)c(Cl)c(O)c(Cl)c1Cl [tetrachloro-p-hydroquinone]
Return: 125

====

Test system: P. acnes NCTC 737
Experiment: MBC assay
Type: cell-based, Propionibacterium acnes
Settings: Cutibacterium acnes, NCTC737
Experimental: The Propionibacterium spp organisms were cultured and maintained on Wilkins-Chalgren Anaerobe Medium (agar and broth) at pH 6.0; cultures were incubated anaerobically at 37° C. for 72 hours. This assay, normally carried out after an MIC assay, determines the minimum concentration of a compound that is lethal to the micro-organism being tested. These samples were then individually sub-cultured on non-selective agar medium, under the incubation conditions described above. […]
So basically, if MBC comes in under 60 µg/mL it's Satisfied, and if it's 60 µg/mL or more it's Not satisfied.

Enquiry: Find out if reported MBC for O=C1C(F)=C(F)C(=O)C(F)=C1F [tetrafluoro-p-benzoquinone] is less than 60 µg/mL
Return: Not satisfied

Enquiry: Threshold test, MBC < 60 µg/mL: O=C1C=CC(=O)C(Cl)=C1 [2-chloro-p-benzoquinone]
Return: Not satisfied

Enquiry: Bench note: check whether O=C1C(Cl)=C(Cl)C(=O)C(Cl)=C1Cl [tetrachloro-p-benzoquinone] shows MBC below 60 µg/mL
Return: Not satisfied

Enquiry: I'd appreciate it if you could check whether Cc1cc(O)c(C)c(O)c1 [2,5-dimethylresorcinol] has MBC smaller than 60 µg/mL.
Return: Satisfied

Enquiry: Identify whether the compound CC1=CC(=O)C=CC1=O [2-methyl-p-benzoquinone] records MBC below 60 µg/mL.
Return: Satisfied

Enquiry: # TODO verify MBC < 60 µg/mL strictly for this compound: CC1=C(Br)C(=O)C(C(C)C)=C(Br)C1=O
Return: Satisfied

Enquiry: Hello, is MBC of the following compound strictly smaller than 60 µg/mL? COC1=CC(=O)C=C(OC)C1=O [2,6-dimethoxy-p-benzoquinone]
Return: Satisfied

====

What MBC was measured for each of the following?
test system: P. acnes NCTC 737; assay: MBC assay; format: cell-based, Propionibacterium acnes; details: P. acnes NCTC 737
Please reply with the bare figure in µg/mL and do not write the unit itself.

Enquiry: Fill in: MBC of Oc1ccc(O)c(F)c1F [2,3-difluoro-p-hydroquinone] is ___
Return: 31.25

Enquiry: Name the reported MBC value associated with the molecule Cc1cc(O)ccc1O [2-methyl-p-hydroquinone]
Return: 125

Enquiry: Could you tell me which MBC is on file for Cc1cc(O)cc(C)c1O [2,6-dimethyl-p-hydroquinone] ?
Return: 31.25

Enquiry: What value of MBC has been reported for the following molecule? Oc1c(Cl)c(Cl)c(O)c(Cl)c1Cl [tetrachloro-p-hydroquinone]
Return: 31.25

Enquiry: Need MBC of Oc1c(F)c(F)c(O)c(F)c1F [tetrafluoro-p-hydroquinone] , thanks.
Return: 125

Enquiry: What value of MBC has been recorded for this entry: CCCCCCOc1cc(C)c(O)c(C)c1C [1-o-hexyl-2,3,5-trimethyl-p-hydroquinone]
Return: 31.25

Enquiry: Please give the measured MBC for this molecule: Oc1cc(Cl)c(O)cc1Cl [2,5-dichloro-p-hydroquinone]
Return: 62.5

====

test system: S. aureus ATCC 29213; experiment: Supplemented disc diffusion assay; assay type: cell-based, Staphylococcus aureus; details: S. aureus ATCC 29213; defibrinated horse blood 5% v/v; 200 μg per disc (thymoquinone 50 μg, 2,6-dimethoxy-p-benzoquinone 100 μg)
DDA + blood below 10 mm gives false; DDA + blood at or above it gives true.

Enquiry: Kindly determine if DDA + blood recorded for CC(C)(C)c1cc(O)c(C(C)(C)C)cc1O [2,5-di-t-butyl-p-hydroquinone] is above or exactly 10 mm.
Return: true

Enquiry: Answer whether DDA + blood of Oc1c(F)c(F)c(O)c(F)c1F [tetrafluoro-p-hydroquinone] is greater than or equal to 10 mm.
Return: false

Enquiry: Threshold query (DDA + blood >= 10 mm) on Oc1cc(Cl)c(O)c(Cl)c1 [2,6-dichloro-p-hydroquinone]
Return: true

Enquiry: Could you please find out whether Cc1cc(O)cc(C)c1O [2,6-dimethyl-p-hydroquinone] has DDA + blood that meets 10 mm or exceeds it?
Return: true

Enquiry: Form field: DDA + blood at least 10 mm? Entry: Cc1cc(O)c(C)c(C)c1O [2,5,6-trimethyl-p-hydroquinone]
Return: false

Enquiry: Please check the record Oc1c(Cl)c(Cl)c(O)c(Cl)c1Cl [tetrachloro-p-hydroquinone] and state if its DDA + blood is at or above 10 mm.
Return: false

Enquiry: hey, is DDA + blood for this one >= 10 mm? CCCCCCOc1cc(C)c(O)c(C)c1C [1-o-hexyl-2,3,5-trimethyl-p-hydroquinone]
Return: false

Enquiry: Given the entry Oc1ccc(O)c(Cl)c1 [2-chloro-p-hydroquinone] , answer whether its DDA + blood meets or surpasses 10 mm.
Return: true

Enquiry: Hi, just wondering whether Oc1cc(Cl)c(O)cc1Cl [2,5-dichloro-p-hydroquinone] shows DDA + blood of 10 mm or higher.
Return: true

Enquiry: Reported DDA + blood at or above 10 mm? Oc1ccc(O)c(Br)c1 [2-bromo-p-hydroquinone]
Return: true
